Entries and their composite z-score
target: Concanavalin-A (Canavalia ensiformis) (UniProt P02866); assay: ConA small-molecule binders, primary screen, artefact control for SMM control protein annotation, biochemical, small-molecule microarray, Alexa647 label, 635 nm (AID 1127); settings: ConA-A647 binding fluorescence, higher = more signal;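 note: z combines 667 nm emission intensity with signal-to-noise across three replicate slides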
Sequence (P02866 whole entry, looked up): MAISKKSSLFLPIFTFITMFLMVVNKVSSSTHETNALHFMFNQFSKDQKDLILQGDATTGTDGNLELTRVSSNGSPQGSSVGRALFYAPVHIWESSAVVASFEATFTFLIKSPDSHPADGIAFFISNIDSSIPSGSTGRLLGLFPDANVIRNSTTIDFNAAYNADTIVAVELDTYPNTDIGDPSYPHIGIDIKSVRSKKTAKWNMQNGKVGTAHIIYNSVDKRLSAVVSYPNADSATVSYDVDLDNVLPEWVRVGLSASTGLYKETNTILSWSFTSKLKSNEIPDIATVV

Example molecules with recorded composite z-score:
1. CCCCC(=C=CC[C@H](O)c1ccccc1OCCO)CCO: -0.14
2. COC(=O)[C@@]1(Cc2ccc(F)cc2)[C@H]2c3cc(C(=O)N4CCCC4)n(Cc4ccc(OC(F)(F)F)cc4)c3C[C@H]2CN1C(=O)c1ccccc1: -0.484
3. COc1cc(Cc2cc3c(c(CCc4ccccc4)n2)[Si](C(C)C)(C(C)C)O[C@H]3c2ccccc2)cc(OC)c1OC: 0.562

Entry COCCCNC(=O)[C@]1(Cc2ccccc2N=[N+]=[N-])N=C(c2ccc(OCCCO)cc2)O[C@@H]1c1ccccc1 , composite z-score reported as 1.11

Entry under test: COc1cccc(C)c1NC(=O)O[C@H]1[C@H](OC(=O)Nc2ccccc2)[C@@H](OC(=O)Nc2ccccc2)[C@@H](OC)O[C@@H]1CO . Its composite z-score was 1.08

So for CC(C)[Si](C#Cc1ccccc1)(O[C@H](c1ccccc1)c1cn(Cc2ccccc2)nn1)C(C)C , the logged composite z-score turned out to be 1.17

The value of composite z-score measured for the molecule C=CCNC(=O)[C@@H]1[C@H]2C(=O)O[C@H](c3ccccc3)[C@H](c3ccccc3)N2[C@H](c2ccc(OCCO)cc2)[C@@]12C(=O)Nc1ccc(C#CCNC(N)=O)cc12 turned out to be 0.6

Value of measured composite z-score for the entry C=CCC(OC(C)=O)[C@@H]1[C@@H](N(Cc2cccc3ccccc23)C(=O)c2ccc(C)cc2)c2cc(OCCCO)ccc2N1C(=O)Cc1ccc2ccccc2c1 (stereo partly drawn) : -0.0292

###

assay: MM1S myeloma cell viability, profiling panel, resazurin fluorescence, basal, 24 h, PK04 Diversity Set (AID 1174); conditions: higher = more signal, called active from +8 up or from −8 down;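 note: MM1S multiple myeloma cell line; test concentration not given here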
Calls of active or inactive are those of the source.
readoutLabel: z-score

1) CCOC(=O)C1=CCC(c2cccn2C(=O)OC(C)(C)C)N(S(=O)(=O)c2ccc(C)cc2)C1 (configuration not stated): -0.926 (inactive)
2) C=C(COC)C(=O)CC[C@H](OC(C)=O)c1ccccc1OCCO: -2.03 (inactive)
3) O=C1OCCC/C=C\[C@H]2OC34C=CCN(Cc5ccccc5)C(=O)[C@H]3N(CCO)C(=O)[C@@H]4C12 (some centres not stated): 0.99 (inactive)
4) C=CCOC(=O)[C@@H]1[C@H]2C(=O)O[C@H](c3ccccc3)[C@H](c3ccccc3)N2[C@H](c2ccc(OCCOC(=O)[C@@H]3C[C@@H]4C(=O)N[C@@H](CC(C)C)C(=O)N4[C@@H]3c3ccc(O)cc3)cc2)[C@@]12C(=O)Nc1ccc(I)cc12: 0.246 (inactive)
5) COc1ccc([Si](C)(C)[C@H]2[C@H](CC(=O)N3CCC[C@H]3CO)O[C@@]3(C(=O)N(C)c4ccccc43)[C@@H]2C)cc1: -0.212 (inactive)
6) [N-]=[N+]=Nc1ccccc1C[C@]1(C(=O)N2CCCCC2)N=C(c2ccc(OCCCO)cc2)O[C@H]1c1ccccc1: -2.4 (inactive)

Record CC(C)N1C(=O)[C@@]2(Cc3ccccc31)c1ccccc1C(=O)N(Cc1ccccc1)[C@H]2c1ccc(CO)cc1 , field z-score: 0.144 (inactive)

###

experiment: COS7 lysate on small-molecule microarray, probe aHis, 635 nm (AID 1123); conditions: COS7 cell lysate, fluorescence, higher = more signal;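 note: z-score combines 667nm fluorescence intensity with signal-to-noise per printed compound spot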
readoutLabel: composite z-score
In your answer, state the number alone without any accompanying words.

1. C=C(C(=O)CC[C@@H](OC(=O)c1cccnc1)c1cccc(OCCO)c1)C(C)C: -0.588
2. COc1ccc(NN2C(C(O)c3ccc(F)cc3)C=CC3C(=O)N(C4CCCCC4)C(=O)C32)cc1 (configuration not stated): 1.39
3. N#Cc1ccc(NN2C(C(O)c3ccc(B(O)O)cc3)C=CC3CN(c4ccccc4)C(=O)C32)cc1 (configuration not stated): 0.417

Now, please, on to the next molecule.
Record summary for CCCCCCc1nc(Cc2cc(OC)c(OC)c(OC)c2)c(C)c2c1[Si](C(C)C)(C(C)C)OC2 : reported composite z-score = 0.0854

###

Consider the following compounds and their measured composite z-score readings.
target: Fibroblast growth factor 10 (Homo sapiens) (UniProt O15520); assay: FGF10 binders on small-molecule microarrays, primary screen, biochemical, small-molecule microarray, 635 nm fluorescence (AID 1102); details: FGF10 binding, fluorescence 635 nm, higher = more signal
Sequence (O15520 whole entry, looked up): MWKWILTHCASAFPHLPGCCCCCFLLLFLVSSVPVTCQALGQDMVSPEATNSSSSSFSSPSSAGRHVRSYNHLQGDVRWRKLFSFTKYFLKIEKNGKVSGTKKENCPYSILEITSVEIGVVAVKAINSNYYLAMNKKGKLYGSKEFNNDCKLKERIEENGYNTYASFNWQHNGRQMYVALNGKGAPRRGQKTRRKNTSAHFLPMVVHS
# print the numeric value only

1) C=CCN1C(=O)[C@]2(O[C@H](CCO)[C@@H]([Si](C)(C)c3ccc(OC)cc3)[C@@H]2C)c2cc(N3C(=O)c4ccccc4Oc4ccccc43)ccc21: 0.402
2) O=C(O)C1=CC[C@H]2C(=O)N(c3ccccc3)C(=O)[C@@H]12: 0.855
3) CC(C)C[C@@H]1NC(=O)[C@@H]2C[C@H](C(=O)NCCCCCCNC(=O)CS)[C@H](c3ccc(O)cc3)N2C1=O: 1.45

Documented composite z-score of CN(C)C(=O)[C@]1(CCS(=O)(=O)c2ccccc2)N=C(c2ccc(OCCCO)cc2)O[C@@H]1c1ccccc1CN=[N+]=[N-] : 1.26

For CCOC(=O)C[C@H]1[C@H](OC(=O)c2cc3ccccc3oc2=O)[C@@H](NC(=O)c2ccc(-c3ccccc3)cc2)c2cc(OCCCO)ccc2N1C(=O)Cc1ccc(OC)cc1 the compound record lists composite z-score as 1.04

response.value for COC(=O)C(CC#Cc1ccc2c(c1)[C@]1(C(=O)N2)[C@H](C(=O)NC[C@H](O)c2ccccc2)[C@H]2C(=O)O[C@H](c3ccccc3)[C@H](c3ccccc3)N2[C@@H]1c1ccc(O)cc1)C(=O)OC (field: composite z-score) = 0.243

###

assay: PSAC antagonists in infected red cells, primary screen, cell-based, P. falciparum Indochina, OD700, 1 h (AID 1154); details: P. falciparum Indochina infected RBC osmotic lysis, higher = more signal, called active from +8 up or from −8 down
readoutLabel: z-score
Write the number on its own, no unit after it.

1. COc1cccc(C)c1NC(=O)O[C@H]1[C@H](OC(=O)Nc2ccc3c(c2)OCO3)[C@H](OC(=O)Nc2ccc3c(c2)OCO3)[C@@H](OC)O[C@@H]1CO: 10.7
2. COCCCNC(=O)[C@]1(Cc2ccccc2N=[N+]=[N-])N=C(c2ccc(OCCCO)cc2)O[C@@H]1c1ccccc1: 28.8
3. C=C[C@@H](CO)NS(=O)(=O)c1ccc(Br)cc1: -0.398

get_value(item= [N-]=[N+]=NCc1ccccc1[C@H]1OC(c2ccc(OCCCO)cc2)=N[C@@]1(Cc1ccccc1N=[N+]=[N-])C(N)=O , readout=z-score) returns 22.9

The measured z-score associated with CC(C)c1ccc(NN2C(C(O)c3ccccc3)C=CC3C(=O)N(c4ccccc4)C(=O)C32)cc1 (stereo not drawn) reads 4.51

Entry under test: C=CC[C@@]1(C(=O)NCCCOC)N=C(c2ccc(OCCCO)cc2)O[C@@H]1c1ccccc1CN=[N+]=[N-] . Its z-score was 22.3

The compound listed as CS(=O)(=O)CCOC(=O)C1=CC(CCCO)=CC(C2CC2)N(Cc2sc3ccccc3c2Cl)C=C1C(=O)OCCS(C)(=O)=O (stereo not drawn) shows z-score equal to 12.8

So for C=C(COC)C(=O)CC[C@H](OC(C)=O)c1ccc(CO)o1 , the logged z-score turned out to be 0.421

###

test: small-molecule binders of probe aLefty1, primary screen, biochemical, small-molecule microarray, 635/667 nm fluorescence (AID 1153); details: higher = more signal;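 note: score merges spot fluorescence with signal-to-noise ratio from the scanned slide images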
readoutLabel: composite z-score
Please reply with the value in numeric form only.

Record excerpt, results attached:
1) CC(C)c1ccc(NN2C(C(O)c3ccccc3)C=CC3C(=O)N(c4ccccc4)C(=O)C32)cc1 (configuration not stated): 0.395
2) COCCOC(=O)N1C(=O)[C@@]2(c3cc(C#CCNC(N)=O)ccc31)[C@H](C(N)=O)[C@H]1C(=O)O[C@H](c3ccccc3)[C@H](c3ccccc3)N1[C@@H]2c1ccc(O)cc1: 0.316
3) COc1ccc(C(O)C2C=CC3C(=O)N(c4ccccc4)C(=O)C3N2Nc2ccccc2F)c2ccccc12 (configuration not stated): 1.16
4) O=C1C2C=CC(C(O)C3CCCCC3)N(Nc3ccccc3F)C2C(=O)N1c1ccccc1 (configuration not stated): 0.483
5) O=C1O[C@@H](c2ccccc2)[C@@H](c2ccccc2)N2[C@@H](c3ccccc3OCCO)[C@]3(C(=O)Nc4ccc(C#CC5(O)CCCCCC5)cc43)[C@@H](C(=O)N3CCCCCCC3)[C@H]12: 3.07

molecule [N-]=[N+]=Nc1ccccc1C[C@@]1(C(=O)NCc2ccccc2)N=C(c2ccc(OCCCO)cc2)O[C@@H]1c1ccccc1 , composite z-score observed: 1.43

The recorded composite z-score for COC(=O)C1=CC(c2ccc(CO)cc2)=CC(C2CC2)N(Cc2cc3c(cc2Br)OCO3)C=C1C(=O)OC (configuration not stated) is 0.3
